This section presents log10 Ki values reported for Cytochrome P450 1A1 (Homo sapiens, UniProt P04798) in the literature.
Values below are the log10 of the recorded Ki, with nM as the unit.

input: Write down the reported log10 Ki of Cc1cc2c(ccc3c(=O)cc(-c4ccccc4)oc32)o1 , test system: Cytochrome P450 1A1 (Homo sapiens, UniProt P04798).
output: 2.63

input: Write down the reported log10 Ki of COc1ccc(-c2cc(=O)c3c(OC)c(OC)c(OC)cc3o2)cc1O , test system: Cytochrome P450 1A1 (Homo sapiens, UniProt P04798).
output: 2.80

input: Write down the reported log10 Ki of O=C(O[C@@H](c1ccccc1)[C@@H](Cn1ccnn1)c1ccccc1)c1ccccc1 (relative stereo) , test system: Cytochrome P450 1A1 (Homo sapiens, UniProt P04798).
output: 4.49

input: Write down the reported log10 Ki of Cc1cc2c(ccc3c(-c4ccccc4)cc(=O)oc32)o1 , test system: Cytochrome P450 1A1 (Homo sapiens, UniProt P04798).
output: 4.08

input: Write down the reported log10 Ki of O=c1cc(-c2ccccc2)oc2c1ccc1ncccc12 , test system: Cytochrome P450 1A1 (Homo sapiens, UniProt P04798).
output: 1.60

input: Write down the reported log10 Ki of CCC/C(C=C(C)C)=C\COc1c2occc2c(C)c2ccc(=O)oc12 , test system: Cytochrome P450 1A1 (Homo sapiens, UniProt P04798).
output: 3.86

input: Write down the reported log10 Ki of Cc1cc2c(cc(O)c3c(=O)cc(-c4ccccc4)oc32)o1 , test system: Cytochrome P450 1A1 (Homo sapiens, UniProt P04798).
output: 2.67

input: Write down the reported log10 Ki of O=C(c1ccccc1)C(Cn1ccnn1)c1ccccc1 (stereo unspecified) , test system: Cytochrome P450 1A1 (Homo sapiens, UniProt P04798).
output: 3.73

input: Write down the reported log10 Ki of O=c1cc(-c2ccccc2)oc2c1ccc1ccccc12 , test system: Cytochrome P450 1A1 (Homo sapiens, UniProt P04798).
output: 1.65

input: Write down the reported log10 Ki of CCCCCN1CCN(c2ccc(S(=O)(=O)Oc3cccc(I)c3)cc2)C1=O , test system: Cytochrome P450 1A1 (Homo sapiens, UniProt P04798).
output: 2.28

###

Target chain: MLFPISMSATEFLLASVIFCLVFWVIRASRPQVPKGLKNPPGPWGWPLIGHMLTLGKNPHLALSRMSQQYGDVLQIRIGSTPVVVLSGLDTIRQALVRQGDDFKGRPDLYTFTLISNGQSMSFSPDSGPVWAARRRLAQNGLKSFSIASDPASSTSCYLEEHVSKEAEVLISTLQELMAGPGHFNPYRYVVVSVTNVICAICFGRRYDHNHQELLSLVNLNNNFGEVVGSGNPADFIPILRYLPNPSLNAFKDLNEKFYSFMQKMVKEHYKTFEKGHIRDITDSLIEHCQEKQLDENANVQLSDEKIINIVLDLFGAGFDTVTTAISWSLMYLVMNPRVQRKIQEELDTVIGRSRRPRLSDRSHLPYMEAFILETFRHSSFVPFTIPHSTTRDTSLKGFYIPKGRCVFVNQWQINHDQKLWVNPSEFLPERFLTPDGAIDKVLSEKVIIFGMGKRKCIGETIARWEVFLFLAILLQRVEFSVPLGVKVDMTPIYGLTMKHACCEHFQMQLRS
This section presents pKi values reported for the protein given by its sequence in the literature.
# reply with the number alone; pKi is -log10 of concentration in mol/L

input: Write down the reported pKi of O=c1cc(-c2ccccc2)c2ccc3c(c2o1)C=CCO3 , test system: the protein given by its sequence.
output: 4.60

input: Write down the reported pKi of CCCCCN1CCN(c2ccc(S(=O)(=O)Oc3cc(Cl)cc(Cl)c3)cc2)C1=O , test system: the protein given by its sequence.
output: 5.92

input: Write down the reported pKi of O=c1cc(-c2ccc(O)cc2)oc2cc(O)c(O)c(O)c12 , test system: the protein given by its sequence.
output: 5.79

input: Write down the reported pKi of COc1ccc(-c2cc(=O)c3c(O)c(OC)c(OC)cc3o2)cc1O , test system: the protein given by its sequence.
output: 6.68

input: Write down the reported pKi of COc1cc(/C=C/C(=O)c2ccncc2)cc(OC)c1OC , test system: the protein given by its sequence.
output: 6.55

input: Write down the reported pKi of Cc1cc(=O)oc2c1ccc1ncccc12 , test system: the protein given by its sequence.
output: 4.00

input: Write down the reported pKi of O=c1cc(-c2ccccc2)oc2c3c(ccc12)OCC=C3 , test system: the protein given by its sequence.
output: 6.57
